PBM binding z-score listing for selected sequences.
- Test system: PPARa:RXRa (NR concentration 270 nM, RXRa partner concentration 90 nM)
- assay: PBM binding z-score (relative to random genomic background probes); higher = stronger binding; sequences stand for … in GC…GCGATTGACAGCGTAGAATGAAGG

chain sequence	experimental target	PBM binding z-score
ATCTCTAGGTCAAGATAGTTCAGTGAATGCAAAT	PPARa:RXRa (NR concentration 270 nM, RXRa partner concentration 90 nM)	4.23
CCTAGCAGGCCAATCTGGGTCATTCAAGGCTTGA	PPARa:RXRa (NR concentration 270 nM, RXRa partner concentration 90 nM)	2.54
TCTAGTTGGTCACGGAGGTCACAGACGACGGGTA	PPARa:RXRa (NR concentration 270 nM, RXRa partner concentration 90 nM)	4.34
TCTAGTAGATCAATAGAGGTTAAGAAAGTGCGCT	PPARa:RXRa (NR concentration 270 nM, RXRa partner concentration 90 nM)	1.98
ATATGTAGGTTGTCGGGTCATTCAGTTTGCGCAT	PPARa:RXRa (NR concentration 270 nM, RXRa partner concentration 90 nM)	3.6
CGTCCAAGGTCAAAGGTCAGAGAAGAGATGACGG	PPARa:RXRa (NR concentration 270 nM, RXRa partner concentration 90 nM)	7.26

---

- Test system: PXR homodimer (NR concentration 270 nM)
- assay: PBM binding z-score (relative to random genomic background probes); higher = stronger binding; sequences stand for … in GC…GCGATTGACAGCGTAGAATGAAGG

chain sequence	PBM binding z-score
CCTACTGGGCCATCAGATCATTGATATCAACGTT	-0.238
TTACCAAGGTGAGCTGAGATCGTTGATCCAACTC	-1.19
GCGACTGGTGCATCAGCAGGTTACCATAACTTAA	-0.653
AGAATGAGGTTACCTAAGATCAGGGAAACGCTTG	0.241
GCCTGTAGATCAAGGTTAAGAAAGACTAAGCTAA	-0.503
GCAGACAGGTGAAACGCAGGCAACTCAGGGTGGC	-0.499

---

- System: VDR:RXRa (NR concentration 270 nM, RXRa partner concentration 90 nM)
- assay: PBM binding z-score (relative to random genomic background probes); higher = stronger binding; sequences stand for … in GC…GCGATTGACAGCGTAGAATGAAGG
assay readout: PBM binding z-score

chain sequence	experimental target	quantitative readout
AATACAGGGTCACTACGCCAGAGTAGGTACGAAT	VDR:RXRa (NR concentration 270 nM, RXRa partner concentration 90 nM)	4.39
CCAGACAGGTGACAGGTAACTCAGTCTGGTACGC	VDR:RXRa (NR concentration 270 nM, RXRa partner concentration 90 nM)	-0.206
GGAACGAGGGCAAAGATGATAGCATCTGTCGACG	VDR:RXRa (NR concentration 270 nM, RXRa partner concentration 90 nM)	0.573
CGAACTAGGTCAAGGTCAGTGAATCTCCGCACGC	VDR:RXRa (NR concentration 270 nM, RXRa partner concentration 90 nM)	3.19
TCATACAGGTAAAAGGTGAAAGTCGGTGTGGTAA	VDR:RXRa (NR concentration 270 nM, RXRa partner concentration 90 nM)	1.64
CAAACTAAGTCACCGGAAGGTCAAAGTCCGCATG	VDR:RXRa (NR concentration 270 nM, RXRa partner concentration 90 nM)	3.59
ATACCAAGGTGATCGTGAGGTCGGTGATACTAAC	VDR:RXRa (NR concentration 270 nM, RXRa partner concentration 90 nM)	0.863
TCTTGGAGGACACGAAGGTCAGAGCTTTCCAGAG	VDR:RXRa (NR concentration 270 nM, RXRa partner concentration 90 nM)	2.35
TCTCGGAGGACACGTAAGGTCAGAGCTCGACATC	VDR:RXRa (NR concentration 270 nM, RXRa partner concentration 90 nM)	2.69
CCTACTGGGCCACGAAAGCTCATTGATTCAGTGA	VDR:RXRa (NR concentration 270 nM, RXRa partner concentration 90 nM)	-0.828
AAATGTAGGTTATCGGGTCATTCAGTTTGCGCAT	VDR:RXRa (NR concentration 270 nM, RXRa partner concentration 90 nM)	5.22
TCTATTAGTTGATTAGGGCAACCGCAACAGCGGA	VDR:RXRa (NR concentration 270 nM, RXRa partner concentration 90 nM)	0.526
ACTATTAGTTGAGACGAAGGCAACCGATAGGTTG	VDR:RXRa (NR concentration 270 nM, RXRa partner concentration 90 nM)	-0.504
AAAACGAGGGCAATGAGTTGATAGCACGGGTGGC	VDR:RXRa (NR concentration 270 nM, RXRa partner concentration 90 nM)	5.46
GCGACTGGGGAAAAGCAGGTTACCATAAGGTTGG	VDR:RXRa (NR concentration 270 nM, RXRa partner concentration 90 nM)	-0.273
CAAACTAGGTCACGAAAGGTCAATGTCGAATGAC	VDR:RXRa (NR concentration 270 nM, RXRa partner concentration 90 nM)	6.57
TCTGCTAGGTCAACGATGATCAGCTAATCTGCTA	VDR:RXRa (NR concentration 270 nM, RXRa partner concentration 90 nM)	1.17
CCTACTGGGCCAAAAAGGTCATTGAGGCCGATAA	VDR:RXRa (NR concentration 270 nM, RXRa partner concentration 90 nM)	6.03
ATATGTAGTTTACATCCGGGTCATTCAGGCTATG	VDR:RXRa (NR concentration 270 nM, RXRa partner concentration 90 nM)	3.49
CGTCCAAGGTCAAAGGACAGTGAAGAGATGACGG	VDR:RXRa (NR concentration 270 nM, RXRa partner concentration 90 nM)	3.76
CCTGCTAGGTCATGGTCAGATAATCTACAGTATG	VDR:RXRa (NR concentration 270 nM, RXRa partner concentration 90 nM)	1.62
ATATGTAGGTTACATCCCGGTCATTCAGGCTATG	VDR:RXRa (NR concentration 270 nM, RXRa partner concentration 90 nM)	1.79
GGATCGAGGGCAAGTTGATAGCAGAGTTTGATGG	VDR:RXRa (NR concentration 270 nM, RXRa partner concentration 90 nM)	0.959
CCTCGGAGGACTACAGGAGGTCAGAGCTGCCAGA	VDR:RXRa (NR concentration 270 nM, RXRa partner concentration 90 nM)	1.26
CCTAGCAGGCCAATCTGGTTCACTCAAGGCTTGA	VDR:RXRa (NR concentration 270 nM, RXRa partner concentration 90 nM)	0.38
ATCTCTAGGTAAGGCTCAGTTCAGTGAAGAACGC	VDR:RXRa (NR concentration 270 nM, RXRa partner concentration 90 nM)	0.553

---

- Test system: PXR homodimer (NR concentration 270 nM)
- assay: PBM binding z-score (relative to random genomic background probes); higher = stronger binding; sequences stand for … in GC…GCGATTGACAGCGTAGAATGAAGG
Classes (PBM binding z-score): low group (below 0.2), middle group (0.2 to below 0.6), high group (0.6 or more)

chain sequence	experimental target	group label
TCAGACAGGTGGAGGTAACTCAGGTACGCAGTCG	PXR homodimer (NR concentration 270 nM)	low group
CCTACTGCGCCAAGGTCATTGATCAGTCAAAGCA	PXR homodimer (NR concentration 270 nM)	high group
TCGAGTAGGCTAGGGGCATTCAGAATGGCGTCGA	PXR homodimer (NR concentration 270 nM)	low group
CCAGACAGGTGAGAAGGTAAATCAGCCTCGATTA	PXR homodimer (NR concentration 270 nM)	low group
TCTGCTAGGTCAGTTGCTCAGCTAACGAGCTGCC	PXR homodimer (NR concentration 270 nM)	low group
ATATGTAGGTTATCGGGTTATTCAGTTTGCGCAT	PXR homodimer (NR concentration 270 nM)	high group
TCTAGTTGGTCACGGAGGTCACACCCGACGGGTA	PXR homodimer (NR concentration 270 nM)	high group
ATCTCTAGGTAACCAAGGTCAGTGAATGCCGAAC	PXR homodimer (NR concentration 270 nM)	high group
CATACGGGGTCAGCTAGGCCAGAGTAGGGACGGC	PXR homodimer (NR concentration 270 nM)	middle group
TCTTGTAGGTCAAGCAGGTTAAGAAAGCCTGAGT	PXR homodimer (NR concentration 270 nM)	high group
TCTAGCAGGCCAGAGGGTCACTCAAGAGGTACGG	PXR homodimer (NR concentration 270 nM)	low group
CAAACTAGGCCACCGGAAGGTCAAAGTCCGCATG	PXR homodimer (NR concentration 270 nM)	high group
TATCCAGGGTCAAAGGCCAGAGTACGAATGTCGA	PXR homodimer (NR concentration 270 nM)	middle group
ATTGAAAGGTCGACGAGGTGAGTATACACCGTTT	PXR homodimer (NR concentration 270 nM)	high group
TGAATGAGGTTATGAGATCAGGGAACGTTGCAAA	PXR homodimer (NR concentration 270 nM)	low group
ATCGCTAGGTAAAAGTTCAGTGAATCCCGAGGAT	PXR homodimer (NR concentration 270 nM)	high group
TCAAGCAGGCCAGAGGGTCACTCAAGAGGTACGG	PXR homodimer (NR concentration 270 nM)	low group
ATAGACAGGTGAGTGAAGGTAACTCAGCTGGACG	PXR homodimer (NR concentration 270 nM)	low group
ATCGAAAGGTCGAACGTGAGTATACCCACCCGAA	PXR homodimer (NR concentration 270 nM)	middle group
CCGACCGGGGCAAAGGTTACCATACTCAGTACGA	PXR homodimer (NR concentration 270 nM)	low group
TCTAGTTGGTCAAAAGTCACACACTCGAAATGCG	PXR homodimer (NR concentration 270 nM)	middle group
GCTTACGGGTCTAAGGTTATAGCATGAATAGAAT	PXR homodimer (NR concentration 270 nM)	middle group
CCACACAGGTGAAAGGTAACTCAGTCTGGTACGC	PXR homodimer (NR concentration 270 nM)	middle group
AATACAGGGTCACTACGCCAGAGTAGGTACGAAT	PXR homodimer (NR concentration 270 nM)	middle group
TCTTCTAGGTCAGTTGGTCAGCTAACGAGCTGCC	PXR homodimer (NR concentration 270 nM)	middle group
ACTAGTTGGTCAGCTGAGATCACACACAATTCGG	PXR homodimer (NR concentration 270 nM)	low group
